Could you please report measured viability, T/C for the items listed next?
system: 422866-222-R5-J1-PDC complex spheroid viability; test: Anticancer human tumor 422866-222-R5-J1-PDC patient-derived pancreatic adenocarcinoma cell line growth inhibition [POLQ]; conditions: second compound 0.0316 µM; first compound 0.316 µM; stronger effect = lower value
Give bare numbers, in %.

# example entries with known answers
{"molecule": "O=c1[nH]cc(F)c(=O)[nH]1 + Cc1cccc(N(C)C(=O)C2C(O)CCN2c2nc(C)cc(C(F)(F)F)c2C#N)c1", "measuredOn": "422866-222-R5-J1-PDC complex spheroid viability", "unitsText": "%", "viability, T/C": 102}
{"molecule": "COc1ccc([C@@H](O)c2cc(-c3ncnc4cc(N5CCOCC5)ccc34)c(F)cc2Cl)nn1 + Nc1ccc(C#CCN(C(=O)Cc2ncc(C(F)(F)F)cc2C(F)(F)F)c2ccc(F)cc2)nn1", "measuredOn": "422866-222-R5-J1-PDC complex spheroid viability", "unitsText": "%", "viability, T/C": 70.9}
{"molecule": "CNCc1ccc(-c2[nH]c3cc(F)cc4c3c2CCNC4=O)cc1 + COC1C(OC(N)=O)C(O)C(Oc2ccc3c(O)c(NC(=O)c4ccc(O)c(CC=C(C)C)c4)c(=O)oc3c2C)OC1(C)C", "measuredOn": "422866-222-R5-J1-PDC complex spheroid viability", "unitsText": "%", "viability, T/C": 75.3}
{"molecule": "CCc1cc2c(N3CCc4c(cc(Cn5ccnc5)cc4-c4cn(C)nc4C(F)(F)F)C3=O)ccnc2c(OC)n1 + Nc1ccc(C#CCN(C(=O)Cc2ncc(C(F)(F)F)cc2C(F)(F)F)c2ccc(F)cc2)nn1", "measuredOn": "422866-222-R5-J1-PDC complex spheroid viability", "unitsText": "%", "viability, T/C": 103}

From here, focus on the item given below.
State its viability, T/C for this molecule: CCc1cc2c(N3CCc4c(cc(Cn5ccnc5)cc4-c4cn(C)nc4C(F)(F)F)C3=O)ccnc2c(OC)n1 + Cc1cccc(N(C)C(=O)C2C(O)CCN2c2nc(C)cc(C(F)(F)F)c2C#N)c1
93.3

###

system: 422866-222-R5-J1-PDC complex spheroid viability; test: Anticancer human tumor 422866-222-R5-J1-PDC cell line growth inhibition [POLQ]; details: curve of first compound; second compound 0.316 µM;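 note: spheroids exposed to compounds for one week before readout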
Label fulfilled when IC50 is strictly below 0.3 µM; otherwise label not fulfilled.

Example results:
{"compound": "C=CC(=O)N1CCN(c2nc(=O)n(-c3c(C)ccnc3C(C)C)c3nc(-c4c(O)cccc4F)c(F)cc23)C(C)C1 (centres undefined) + Cc1cccc(N(C)C(=O)C2C(O)CCN2c2nc(C)cc(C(F)(F)F)c2C#N)c1", "qualitativeLabel": "fulfilled"}
{"compound": "CC[C@@]1(O)C(=O)OCc2c1cc1n(c2=O)Cc2cc3c(CN(C)C)c(O)ccc3nc2-1 + Nc1ccc(C#CCN(C(=O)Cc2ncc(C(F)(F)F)cc2C(F)(F)F)c2ccc(F)cc2)nn1", "qualitativeLabel": "fulfilled"}
{"compound": "Nc1ccn(C2OC(CO)C(O)C2(F)F)c(=O)n1 (centres undefined) + COC1C(OC(N)=O)C(O)C(Oc2ccc3c(O)c(NC(=O)c4ccc(O)c(CC=C(C)C)c4)c(=O)oc3c2C)OC1(C)C", "qualitativeLabel": "fulfilled"}
{"compound": "O=C(Nc1ccc(O)c(NS(=O)(=O)c2ccc(F)cc2)c1)c1ccc(-c2ccccc2)cc1 + Nc1ccc(C#CCN(C(=O)Cc2ncc(C(F)(F)F)cc2C(F)(F)F)c2ccc(F)cc2)nn1", "qualitativeLabel": "not fulfilled"}

Consider the compound COc1cc(C2c3cc4c(cc3C(OC3OC5COC(C)OC5C(O)C3O)C3COC(=O)C23)OCO4)cc(OC)c1O (centres undefined) + COC1C(OC(N)=O)C(O)C(Oc2ccc3c(O)c(NC(=O)c4ccc(O)c(CC=C(C)C)c4)c(=O)oc3c2C)OC1(C)C . Is its IC50 strictly less than 0.3 µM?
not fulfilled

Consider the compound CCCS(=O)(=O)Nc1ccc(F)c(C(=O)c2c[nH]c3ncc(-c4ccc(Cl)cc4)cc23)c1F + COC1C(OC(N)=O)C(O)C(Oc2ccc3c(O)c(NC(=O)c4ccc(O)c(CC=C(C)C)c4)c(=O)oc3c2C)OC1(C)C . Is its IC50 strictly less than 0.3 µM?
not fulfilled

Consider the compound CC(C)n1c(=O)n(C)c2cnc3cc(F)c(-c4ccc(OCCCN5CCCCC5)nc4)cc3c21 + Nc1ccc(C#CCN(C(=O)Cc2ncc(C(F)(F)F)cc2C(F)(F)F)c2ccc(F)cc2)nn1 . Is its IC50 strictly less than 0.3 µM?
not fulfilled

Consider the compound Nc1ccn(C2OC(CO)C(O)C2(F)F)c(=O)n1 (centres undefined) + Cc1cccc(N(C)C(=O)C2C(O)CCN2c2nc(C)cc(C(F)(F)F)c2C#N)c1 . Is its IC50 strictly less than 0.3 µM?
fulfilled

Consider the compound CC(=O)O[C@H]1C(=O)[C@@]2(C)[C@H]([C@H](OC(=O)c3ccccc3)[C@]3(O)C[C@H](OC(=O)[C@H](O)[C@@H](NC(=O)c4ccccc4)c4ccccc4)C(C)=C1C3(C)C)[C@]1(OC(C)=O)CO[C@@H]1C[C@@H]2O + Nc1ccc(C#CCN(C(=O)Cc2ncc(C(F)(F)F)cc2C(F)(F)F)c2ccc(F)cc2)nn1 . Is its IC50 strictly less than 0.3 µM?
fulfilled

Consider the compound CC[C@@]1(O)C(=O)OCc2c1cc1n(c2=O)Cc2cc3c(CN(C)C)c(O)ccc3nc2-1 + Cc1cccc(N(C)C(=O)C2C(O)CCN2c2nc(C)cc(C(F)(F)F)c2C#N)c1 . Is its IC50 strictly less than 0.3 µM?
fulfilled

Consider the compound C#Cc1c(F)ccc2cc(O)cc(-c3ncc4c(N5CC6CCC(C5)N6)nc(OCC56CCCN5CC(F)C6)nc4c3F)c12 (centres undefined) + Nc1ccc(C#CCN(C(=O)Cc2ncc(C(F)(F)F)cc2C(F)(F)F)c2ccc(F)cc2)nn1 . Is its IC50 strictly less than 0.3 µM?
not fulfilled

Consider the compound CCc1cc2c(N3CCc4c(cc(Cn5ccnc5)cc4-c4cn(C)nc4C(F)(F)F)C3=O)ccnc2c(OC)n1 + Nc1ccc(C#CCN(C(=O)Cc2ncc(C(F)(F)F)cc2C(F)(F)F)c2ccc(F)cc2)nn1 . Is its IC50 strictly less than 0.3 µM?
not fulfilled

Consider the compound CC(=O)O[C@H]1C(=O)[C@@]2(C)[C@H]([C@H](OC(=O)c3ccccc3)[C@]3(O)C[C@H](OC(=O)[C@H](O)[C@@H](NC(=O)c4ccccc4)c4ccccc4)C(C)=C1C3(C)C)[C@]1(OC(C)=O)CO[C@@H]1C[C@@H]2O + COC1C(OC(N)=O)C(O)C(Oc2ccc3c(O)c(NC(=O)c4ccc(O)c(CC=C(C)C)c4)c(=O)oc3c2C)OC1(C)C . Is its IC50 strictly less than 0.3 µM?
not fulfilled

###

Could you please report measured IC50 for the items listed next?
tested on: 422866-222-R5-J1-PDC complex spheroid viability; assay: Anticancer human tumor 422866-222-R5-J1-PDC cell line growth inhibition [POLQ]; settings: curve of first compound; second compound 1 µM;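 note: spheroids exposed to compounds for one week before readout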
Numbers only, in nM.

{"molecule": "Nc1ccn(C2OC(CO)C(O)C2(F)F)c(=O)n1 (stereo unspecified) + COC1C(OC(N)=O)C(O)C(Oc2ccc3c(O)c(NC(=O)c4ccc(O)c(CC=C(C)C)c4)c(=O)oc3c2C)OC1(C)C", "metricName": "IC50", "unitsText": "nM", "endpointValue": 74.6}
{"molecule": "C#Cc1c(F)ccc2cc(O)cc(-c3ncc4c(N5CC6CCC(C5)N6)nc(OCC56CCCN5CC(F)C6)nc4c3F)c12 (stereo unspecified) + Cc1cccc(N(C)C(=O)C2C(O)CCN2c2nc(C)cc(C(F)(F)F)c2C#N)c1", "metricName": "IC50", "unitsText": "nM", "endpointValue": 712}

State its IC50 for this molecule: COc1cc(C2c3cc4c(cc3C(OC3OC5COC(C)OC5C(O)C3O)C3COC(=O)C23)OCO4)cc(OC)c1O (stereo unspecified) + Cc1cccc(N(C)C(=O)C2C(O)CCN2c2nc(C)cc(C(F)(F)F)c2C#N)c1
735

###

test system: 422866-222-R5-J1-PDC complex spheroid viability; assay: Anticancer human tumor 422866-222-R5-J1-PDC cell line growth inhibition [POLQ]; settings: second compound 3.16 µM; first compound 3.16 µM; stronger effect = lower value;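 note: spheroids exposed to compounds for one week before readout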;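 for viability, T/C: percent of DMSO vehicle wells luminescence so 100% = untreated viability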
Could you please report measured viability, T/C for the items listed next?
One number for each entry, in %.

{"compound": "C#Cc1c(F)ccc2cc(O)cc(-c3ncc4c(N5CC6CCC(C5)N6)nc(OCC56CCCN5CC(F)C6)nc4c3F)c12 (stereo not given) + Cc1cccc(N(C)C(=O)C2C(O)CCN2c2nc(C)cc(C(F)(F)F)c2C#N)c1", "metricName": "viability, T/C", "endpointValue": 30.3}

Here are 4 compounds. What values of viability, T/C were reported for them?
1. COc1cc(C2c3cc4c(cc3C(OC3OC5COC(C)OC5C(O)C3O)C3COC(=O)C23)OCO4)cc(OC)c1O (stereo not given) + Cc1cccc(N(C)C(=O)C2C(O)CCN2c2nc(C)cc(C(F)(F)F)c2C#N)c1
2. CC(C)n1c(=O)n(C)c2cnc3cc(F)c(-c4ccc(OCCCN5CCCCC5)nc4)cc3c21 + COC1C(OC(N)=O)C(O)C(Oc2ccc3c(O)c(NC(=O)c4ccc(O)c(CC=C(C)C)c4)c(=O)oc3c2C)OC1(C)C
3. COc1cc(C2c3cc4c(cc3C(OC3OC5COC(C)OC5C(O)C3O)C3COC(=O)C23)OCO4)cc(OC)c1O (stereo not given) + Nc1ccc(C#CCN(C(=O)Cc2ncc(C(F)(F)F)cc2C(F)(F)F)c2ccc(F)cc2)nn1
4. Nc1ccn(C2OC(CO)C(O)C2(F)F)c(=O)n1 (stereo not given) + Cc1cccc(N(C)C(=O)C2C(O)CCN2c2nc(C)cc(C(F)(F)F)c2C#N)c1

40.1
35.4
37.6
37.8
